pKi: −log10 of the molar value.
Assignment: determine reported pKi for the given compounds.

For the record NC1=NC2(CCCCC2)NC(Nc2cccc(Br)c2)=N1 , what value of pKi is listed for 5-hydroxytryptamine receptor 1E (Homo sapiens)?
< 5.00

For the record CCOC(=O)c1cccc(NC2=NC(N)=NC3(CCCCC3)N2)c1 , what value of pKi is listed for 5-hydroxytryptamine receptor 1E (Homo sapiens)?
< 5.00

For the record CCNC(=O)c1cccc(NC2=NC(N)=NC3(CCCCC3)N2)c1 , what value of pKi is listed for 5-hydroxytryptamine receptor 1E (Homo sapiens)?
< 5.00

----------
Assignment: determine reported pKi for the given compounds.
Just so you know, pKi here is -log10 of the concentration in molar units; reply with that number alone.

For the record CCOC(=O)c1cccc(NC2=NC(N(C)C)=NC3(CCCCC3)N2)c1 , what value of pKi is listed for 5-hydroxytryptamine receptor 2A (Homo sapiens, UniProt P28223)?
5.81

For the record CCNC(=O)c1cccc(NC2=NC(N)=NC3(CCCCC3)N2)c1 , what value of pKi is listed for 5-hydroxytryptamine receptor 2A (Homo sapiens, UniProt P28223)?
5.88

For the record NC1=NC2(CCCCC2)NC(Nc2cccc(Br)c2)=N1 , what value of pKi is listed for 5-hydroxytryptamine receptor 2A (Homo sapiens, UniProt P28223)?
6.68

----------
Assignment: determine reported Ki for the given compounds.

For the record NC1=NC2(CCCCC2)NC(Nc2cccc(Br)c2)=N1 , what value of Ki is listed for 5-hydroxytryptamine receptor 1B (Homo sapiens, UniProt P28222)?
> 10 µM

For the record CCNC(=O)c1cccc(NC2=NC(N)=NC3(CCCCC3)N2)c1 , what value of Ki is listed for 5-hydroxytryptamine receptor 1B (Homo sapiens, UniProt P28222)?
> 10 µM

----------
Consider the following Ki values measured on 5-hydroxytryptamine receptor 5A (Homo sapiens, UniProt P47898).
Sequence (P47898 whole entry): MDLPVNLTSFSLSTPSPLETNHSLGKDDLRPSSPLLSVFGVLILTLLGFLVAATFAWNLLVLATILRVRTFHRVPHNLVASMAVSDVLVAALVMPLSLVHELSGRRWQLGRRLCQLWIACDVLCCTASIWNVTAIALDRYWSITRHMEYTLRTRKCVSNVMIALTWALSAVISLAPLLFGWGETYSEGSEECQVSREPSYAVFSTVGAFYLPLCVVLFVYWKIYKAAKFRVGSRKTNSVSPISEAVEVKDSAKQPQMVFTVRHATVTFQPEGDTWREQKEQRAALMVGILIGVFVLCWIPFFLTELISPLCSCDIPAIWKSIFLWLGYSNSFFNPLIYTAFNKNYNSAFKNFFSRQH
Use nM as the unit, but write only the number.

For the record CCOC(=O)c1cccc(NC2=NC(N)=NC3(CCCCC3)N2)c1 , what value of Ki is listed for 5-hydroxytryptamine receptor 5A (Homo sapiens, UniProt P47898)?
457

For the record NC1=NC2(CCCCC2)NC(Nc2cccc(Br)c2)=N1 , what value of Ki is listed for 5-hydroxytryptamine receptor 5A (Homo sapiens, UniProt P47898)?
227

For the record CC1(C)N=C(N)N=C(Nc2cccc(Br)c2)N1 , what value of Ki is listed for 5-hydroxytryptamine receptor 5A (Homo sapiens, UniProt P47898)?
389

----------
- subject.of.test: 5-hydroxytryptamine receptor 2C (Homo sapiens)
- Sequence (P28335 whole entry): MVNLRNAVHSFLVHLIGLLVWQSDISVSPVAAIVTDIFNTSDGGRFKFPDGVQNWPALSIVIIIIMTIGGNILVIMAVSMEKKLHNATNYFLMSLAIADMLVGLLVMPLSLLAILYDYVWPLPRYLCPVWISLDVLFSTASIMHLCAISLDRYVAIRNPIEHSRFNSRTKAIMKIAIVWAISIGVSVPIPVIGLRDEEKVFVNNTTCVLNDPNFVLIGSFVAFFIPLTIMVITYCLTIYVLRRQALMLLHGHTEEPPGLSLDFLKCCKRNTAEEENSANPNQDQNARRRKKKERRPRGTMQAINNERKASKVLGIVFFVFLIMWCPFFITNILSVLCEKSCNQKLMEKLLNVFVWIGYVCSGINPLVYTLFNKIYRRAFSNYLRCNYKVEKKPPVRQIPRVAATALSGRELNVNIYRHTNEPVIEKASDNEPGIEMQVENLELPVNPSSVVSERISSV
value.kind: Ki (nM)
Use nM as the unit, but write only the number.

// Ki lookup, key: CCNC(=O)c1cccc(NC2=NC(N)=NC3(CCCCC3)N2)c1
1900

// Ki lookup, key: NC1=NC2(CCCCC2)NC(Nc2cccc(Br)c2)=N1
156

// Ki lookup, key: CCOC(=O)c1cccc(NC2=NC(N)=NC3(CCCCC3)N2)c1
851

// Ki lookup, key: CC1(C)N=C(N)N=C(Nc2cccc(Br)c2)N1
265
